# Test system: NCI-H522 lung
# experimental_details: NCI-60 one-dose screen, 48 h
# measurement_conditions: 10 µM unless noted
The panel holds about 83,000 compounds, 20% with a hit somewhere; the sample as a whole holds those more often. Active and inactive are the calls of the source. The calls were made as follows: active = growth percent below 10; inactive = the rest.
Parameter call: string, one of label 1 (active), label 0 (inactive)

// below: answered compounds
Q. Check the results log: what was the call for `CCOc1ccccc1NC(=O)CCC(=O)OC` ?
A. label 0

Q. Check the results log: what was the call for `CC(=O)OCCOc1cc(Cl)c(Cl)cc1Cl` ?
A. label 0

Q. Check the results log: what was the call for Clc1nc(N2CCC[N+]3(CC2)CC[N+]2(CCCNCC2)CC3)nc(N2CCC[N+]3(CC2)CC[N+]2(CCCNCC2)CC3)n1 (stereo unspecified) ?
A. label 0

Q. Check the results log: what was the call for `COc1ccc(C(=O)/C=C/c2ccc(C)cc2)cc1S(N)(=O)=O` ?
A. label 0

Q. Check the results log: what was the call for `CCCCCCCCNC(=O)[C@@H](N)CSCOC(C)=O` ?
A. label 0

Q. Check the results log: what was the call for `C=CCNc1ccc2c3c(cccc13)C(=O)N(CC=C)C2=O` ?
A. label 0

Then this compound:
Q. Check the results log: what was the call for `NCCCCCNc1noc(Cc2c[nH]c3cc(Br)ccc23)n1` ?
A. label 1

* * *

# Test system: SK-MEL-2 melanoma
# experimental_details: NCI-60 one-dose screen, 48 h
# measurement_conditions: 10 µM unless noted
This is part of a sample that, as a whole, favours compounds with a hit. Of some 83,000 tested, about 20% had one in any assay. Activity calls are given as the source filed them. Rule for the calls: active = growth percent below 10; inactive = the rest.
Parameter call: string, one of active, inactive

// below: answered compounds
Q. Check the results log: what was the call for `O=C(c1ccc(F)cc1)C1CCN(CCn2c(=O)[nH]c3ccccc3c2=O)CC1` ?
A. inactive

Q. Check the results log: what was the call for `CS(=O)(=O)c1ccc(/C(=N/NC(N)=S)c2ccc(F)cc2)cc1` ?
A. inactive

Q. Check the results log: what was the call for C#CCOc1ccc(C2=NN(CCCC)C3N=C(Cl)c4ncn(CCCC)c4N23)cc1OCC#C (stereo unspecified) ?
A. inactive

Q. Check the results log: what was the call for `COc1cc(NC(=O)c2cncnc2Nc2ccc3c(ccn3Cc3cccc(F)c3)c2)cc(OC)c1` ?
A. inactive

Q. Check the results log: what was the call for C=CCOC(=O)C1=C(C)N(CC)C(=O)N(CC)C1c1c(Cl)n(C)c2ccccc12 (stereo unspecified) ?
A. inactive

Q. Check the results log: what was the call for `CC(=O)OCCOc1cc(Cl)c(Cl)cc1Cl` ?
A. inactive

Q. Check the results log: what was the call for COc1cc2c(c(OC)c1OC)CCC(c1cccc(C(=O)Nc3ccc([N+](=O)[O-])cc3)c1)O2 (stereo unspecified) ?
A. inactive

Q. Check the results log: what was the call for `Cc1ccc(S(=O)(=O)N(CCC(=O)O)c2ccccc2)cc1` ?
A. inactive

Continuing:
Q. Check the results log: what was the call for `O=c1[nH]c(CN2CCN(c3ccccc3)CC2)nc2c(Br)cc(Br)cc12` ?
A. inactive

Q. Check the results log: what was the call for `Cc1ccc(Nc2cc(N)nc(N)n2)cc1` ?
A. inactive

Q. Check the results log: what was the call for COc1cc2c(cc1-c1c(C)noc1C)ncc1nc(C3CCOCC3)n(C3CCC(OC(F)F)CC3)c12 (stereo unspecified) ?
A. inactive

Q. Check the results log: what was the call for `Nc1nc(=O)n([C@H]2CC=C(CO)O2)cc1F` ?
A. inactive

Q. Check the results log: what was the call for COc1cccc(C2C3=C(COC3=O)N(CCO)c3cc4c(cc32)OCCO4)c1 (stereo unspecified) ?
A. inactive

Q. Check the results log: what was the call for `CN1CCN(Cc2ccc(NC(=O)c3cc(C#Cc4cnc(N)c5ncccc45)n(C)n3)cc2C(F)(F)F)CC1` ?
A. inactive

Q. Check the results log: what was the call for `Cc1cc([N+](=O)[O-])ccc1NC(=O)c1ccc2c(c1)nc(-c1ccccc1)n2C1CCCCC1` ?
A. inactive

Q. Check the results log: what was the call for `Cc1ccc(-c2nc(C#N)c(S(=O)(=O)n3nc(C)cc3N)o2)cc1` ?
A. inactive

Q. Check the results log: what was the call for `COC(=O)[C@H](C)NC(=O)[C@@H]1CCCN1C(=O)CNC(=O)[C@H](C)N` ?
A. inactive

Q. Check the results log: what was the call for `Oc1ccc(C(c2ccc(O)cc2)c2ccc(Cl)cn2)cc1` ?
A. inactive

Q. Check the results log: what was the call for `Nc1ncc(-c2ccc3ncnc(N4CCc5ccc(Cl)cc54)c3c2)cn1` ?
A. active

Q. Check the results log: what was the call for `COc1ccc2c(c1)c(-c1nc(-c3cn(C)c4ccncc34)cs1)cn2C` ?
A. inactive

Q. Check the results log: what was the call for `COc1ccc(-c2csc(NC(=O)CSc3nc(C)cc(=O)[nH]3)n2)cc1` ?
A. inactive
